# Tested on: HCC1599
# testDescription: normalised response (% of control), CellTox Green; higher = less cell death (100 = DMSO, 0 = benzethonium chloride kill control)
# experimentalConditions: incubation time: 72 h
Readings of normalised response for the listed compounds
Response body: numeric value in %, unit text excluded.

Notebook entry, HCC1599 assay: normalised response of S=P(N1CC1)(N1CC1)N1CC1 [Thio-TEPA] (5000 nM) = ?
93.5

Which measured normalised response belongs to COc1cc2c(NC3CCN(C(C)C)CC3)nc(N3CCC(F)(F)CC3)nc2cc1OCCCN1CCCC1 [UNC0642] (10000 nM) , tested on HCC1599?
87.4

# query: normalised response | item Oc1ccc2c(c1)CC[C@H](c1ccccc1)[C@@H]2c1ccc(OCCN2CCCC2)cc1 [Lasofoxifene] (100 nM) | system: HCC1599
95.2

// lookup normalised response | system=HCC1599 | key= O=C(Nc1cccnc1)N1CCC(Cc2cccc(Oc3ccc(C(F)(F)F)cn3)c2)CC1 [PF-3845] (100 nM)
113

Param readout = normalised response; param system = HCC1599; param query = C=C1C[C@@H]2[C@H](CC[C@]3(C)C(=O)CC[C@@H]23)[C@@]2(C)C=CC(=O)C=C12 [Exemestane] (10000 nM) ; response: value
112

Report normalised response for O=C(Nc1ccncc1)C(=O)c1cn(Cc2ccc(Cl)cc2)c2ccccc12 [Indibulin] (10000 nM) tested on HCC1599.
105

# returns recorded normalised response (system: HCC1599) for NC(=O)c1ccc(I)c([N+](=O)[O-])c1 [Iniparib] (10000 nM)
100

Identify the measured normalised response of CNC(=O)c1ccc(N2C(=S)N(c3ccc(C#N)c(C(F)(F)F)c3)C(=O)C23CCC3)cc1F [RD162] (100 nM) for HCC1599.
102

GET /values?readout=normalised response&system=HCC1599&item= CNC(=O)c1ccc(N2C(=S)N(c3ccc(C#N)c(C(F)(F)F)c3)C(=O)C2(C)C)cc1F [Enzalutamide] (10000 nM)
96.7
